Biological target: cannabinoid receptor-2 (CB2), CB2R-containing cell membrane; hCB2 receptors (Homo sapiens, UniProt P34972)
Construct: purchased Applied Cell Sciences Inc, Rockville, Md
Sequence (P34972 whole entry): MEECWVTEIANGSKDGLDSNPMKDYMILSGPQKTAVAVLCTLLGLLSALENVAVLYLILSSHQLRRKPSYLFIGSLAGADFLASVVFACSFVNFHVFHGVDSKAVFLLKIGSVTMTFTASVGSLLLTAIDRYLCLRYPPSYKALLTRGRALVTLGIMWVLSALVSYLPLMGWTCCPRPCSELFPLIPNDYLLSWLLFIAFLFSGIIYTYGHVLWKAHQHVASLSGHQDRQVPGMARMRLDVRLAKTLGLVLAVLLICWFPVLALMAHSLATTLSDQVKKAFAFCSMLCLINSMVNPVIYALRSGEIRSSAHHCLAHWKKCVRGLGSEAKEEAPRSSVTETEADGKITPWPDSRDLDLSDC
Assay: Cannabinoid Receptor-2 (CB2) Binding Assay, Method A using cell membranes (displacement of 3H-CP55940)
Settings: displacement of 3H-CP55940 (1 nM), CB2R-containing cell membrane
Attribute: IC50

Worked cases, answers included:
Sure, the documented IC50 for O=C(NCc1cccc(C(F)(F)F)c1)C(CCC(=O)N1CCN(CCc2ccccc2)CC1)N1C(=O)C(N2C(=O)OCC2c2ccccc2)C1C=Cc1ccccc1 (stereo not drawn) [Example 44B] is <1 µM

Query CC(C)(C)OC(=O)CCC(C(=O)N1CCN(CCc2ccccc2)CC1)N1C(=O)C(N2C(=O)OCC2c2ccccc2)C1C=Cc1ccccc1 (stereo not drawn) [Example 19E] yields IC50 of <10 µM

Turning now to a further record.
Reported IC50 ( CCN1CCN(C(=O)CCC(C(=O)NCc2cccc(C(F)(F)F)c2)N2C(=O)C(N3C(=O)OCC3c3ccccc3)C2C(Br)=Cc2ccccc2)CC1 (stereo not drawn) [Example 45U] ) = <10 µM
